Recorded measurements of koff, one per entry
target: Recombinant human his-tagged IGF 1R extracellular domain protein (human) (UniProt P08069); experiment: SPR, captured IgG, IGF-1R ECD-his analyte, dissociation pH 6
The response must be a number in s⁻¹ with no trailing unit.

Sample records with koff:
binder	u	koff
VRDN-02571 (antibody, V domains shown) VH: EVQLVQSGGGLVKPGGSLRLSCAASGFTFSSFAMHWVRQAPGKGLEWISVIHTRGATYYADSVKGRFTISRDNAKNSLYLQMNSLRAEDTAVYYCARLGNFYYGHDVWGQGTTVTVSS VL: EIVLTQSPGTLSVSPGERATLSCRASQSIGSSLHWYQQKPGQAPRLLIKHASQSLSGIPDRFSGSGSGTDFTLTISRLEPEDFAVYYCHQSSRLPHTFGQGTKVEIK	s⁻¹	0.000344
VRDN-02559 (antibody, V domains shown) VH: EVQLVQSGGGLVKPGGSLRLSCAASGFTFSSFHMHWVRQAPGKGLEWISVIDTRGATYYADSVKGRFTISRDNAKNSLYLQMNSLRAEDTAVYYCHRLGNFYYGMDVWGQGTTVTVSS VL: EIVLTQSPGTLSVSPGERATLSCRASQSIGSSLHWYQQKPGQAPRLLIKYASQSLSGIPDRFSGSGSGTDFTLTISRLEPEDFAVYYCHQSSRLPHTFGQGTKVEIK	s⁻¹	0.000567

Here is another binder to look at.
State its koff: VRDN-02549 (antibody, V domains shown) VH: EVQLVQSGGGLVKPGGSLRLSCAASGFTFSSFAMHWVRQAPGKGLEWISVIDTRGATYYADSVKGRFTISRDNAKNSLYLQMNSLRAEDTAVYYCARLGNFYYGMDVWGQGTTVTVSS VL: EIVLTQSPGTLSVSPGERATLSCRASQSIGSSLHWYQQKPGQAPRLLIKYASQSLSGIPDRFSGSGSGTDFTLTISRLEPEDFAVYYCHQSSHLPHTFGQGTKVEIK
1e-06
